Recorded values, source patent US11203613B2.

target: Human Constitutive (Hu C-20S) β5 Active Subunit (Homo sapiens, UniProt P28074); test: IC50 determination, human constitutive 20S proteasome β5c (suc-LLVY-AMC hydrolysis); assay type: biochemical; details: Table 3; IC50 against human constitutive β5 active subunit; read-out: Hu-C20S β5

| Compound | IC50 |
| --- | --- |
| CC(C)CCC(=O)N[C@@H](CC(=O)N1CCC[C@@H]1c1ccccc1)C(=O)NC(C)c1nc2ccccc2[nH]1 (stereo partly shown) | 29.4 µM |
| CC[C@H]1CCCCN1C(=O)C[C@H](NC(=O)CC(F)(F)F)C(=O)N[C@@H](C)c1nc2c(F)cccc2[nH]1 | 4.2 µM |
| CC[C@H]1CCCCN1C(=O)C[C@H](NC(=O)CCC(C)C)C(=O)N[C@@H](C)c1nc2c(F)cc(F)cc2[nH]1 | 4.1 µM |
| Cc1ccc(S(=O)(=O)N[C@H](C(=O)N[C@@H](C)c2nc3cccc(F)c3[nH]2)[C@@H](C)O)cc1 | > 100 µM |
| CC[C@H]1CCCCN1C(=O)C[C@H](NC(=O)OCc1ccccc1)C(=O)N[C@@H](C)c1nc2c(F)cccc2[nH]1 | 5.8 µM |
| C[C@H](NC(=O)[C@H](CC(=O)N1CCCC[C@@H]1C)NC(=O)[C@H]1C[C@@H]1c1ccccc1)c1nc2c(F)cccc2[nH]1 | 12.3 µM |
| C[C@H](NC(=O)[C@H](CC(=O)N1CCC[C@@H]1c1ccccc1)NC(=O)CCCC(F)(F)F)c1nc2ccccc2n1C | > 100 µM |

----------
Recorded IC50 by entry
biological target: Human Constitutive (Hu C-20S) β5 Active Subunit (Homo sapiens, UniProt P28074); assay: IC50 determination, human constitutive 20S proteasome β5c (suc-LLVY-AMC hydrolysis); format: biochemical; details: Table 3; IC50 against human constitutive β5 active subunit; read-out: Hu-C20S β5
Attribute Measured: IC50 (µM)

| Compound | Target Under Test | Reported |
| --- | --- | --- |
| CC[C@H]1CCCCN1C(=O)C[C@H](NC(=O)OCC(C)C)C(=O)N[C@@H](C)c1nc2c(F)cccc2[nH]1 | Human Constitutive (Hu C-20S) β5 Active Subunit (Homo sapiens, UniProt P28074) | 2.5 |
| CC[C@H]1CCCCN1C(=O)C[C@H](Nc1nc(Cc2ccc(F)cc2)no1)C(=O)N[C@@H](C)c1nc2c(F)cccc2[nH]1 | Human Constitutive (Hu C-20S) β5 Active Subunit (Homo sapiens, UniProt P28074) | 1.4 |
| CCS(=O)(=O)N[C@@H](CC(=O)N1CCCC[C@@H]1C)C(=O)N[C@@H](C)c1ncc(-c2ccc(F)cc2F)[nH]1 | Human Constitutive (Hu C-20S) β5 Active Subunit (Homo sapiens, UniProt P28074) | 28.2 |
| Cc1cc(C(=O)N[C@@H](CC(=O)N2CCCC[C@@H]2C)C(=O)NC(C)c2nc3ccccc3[nH]2)no1 (stereo partly shown) | Human Constitutive (Hu C-20S) β5 Active Subunit (Homo sapiens, UniProt P28074) | 19.6 |

----------
Recorded pIC50 by entry
target: Human Constitutive (Hu C-20S) β5 Active Subunit (Homo sapiens); test: IC50 determination, human constitutive 20S proteasome β5c (suc-LLVY-AMC hydrolysis); format: biochemical; conditions: Table 3; IC50 against human constitutive β5 active subunit; read-out: Hu-C20S β5
pIC50: −log10 of the molar value.
Attribute Measured: pIC50

| Compound | Attribute Measured | Reading Qualifier | Reported |
| --- | --- | --- | --- |
| CC(C)CCC(=O)N[C@@H](CC(=O)N1CCC[C@@H]1c1ccccc1)C(=O)N[C@H](C)c1nc2ccccc2[nH]1 [CEN-49] | pIC50 | = | 4.30 |
| CC(C)CCC(=O)N[C@@H](CC(=O)N1CCCC[C@@H]1C(F)(F)F)C(=O)N[C@@H](C)c1ncc(-c2ccc(F)cc2F)[nH]1 [CEN-111] | pIC50 | = | 5.31 |
| Cc1cc(C(=O)N[C@@H](CC(=O)N2CCCC2)C(=O)N[C@@H](C)c2ncc(-c3ccc(F)cc3F)[nH]2)no1 [CEN-80] | pIC50 | = | 4.78 |
| CC(C)CCC(=O)N[C@@H](CC(=O)N1CCCCCC1)C(=O)N[C@@H](C)c1ncc(-c2ccc(F)cc2F)[nH]1 [CEN-90] | pIC50 | = | 4.99 |
| C[C@H](NC(=O)[C@H](CC(=O)N1CCCC[C@@H]1C)NC(=O)C1CC(C)(C)C1)c1ncc(-c2ccc(F)cc2F)[nH]1 [CEN-96] | pIC50 | = | 5.24 |
| C[C@H](NC(=O)[C@H](CC(=O)N1CCCC[C@@H]1C)NC(=O)c1cncs1)c1ncc(-c2ccc(F)cc2F)[nH]1 [CEN-98] | pIC50 | = | 5.15 |
| Cc1ncc(C(=O)N[C@@H](CC(=O)N2CCCC[C@@H]2C)C(=O)N[C@@H](C)c2ncc(-c3ccc(F)cc3F)[nH]2)s1 [CEN-105] | pIC50 | = | 5.41 |
| C[C@H](NC(=O)[C@@H](N)CC(=O)N1CCC[C@@H]1c1ccccc1)c1ncc(-c2ccccc2F)[nH]1 [CEN-74] | pIC50 | = | 4.03 |
| C[C@H](NC(=O)[C@H](CC(=O)N1CCC[C@@H]1C)NC(=O)CCC(C)(C)C)c1nc2ccccc2[nH]1 [CEN-33] | pIC50 | = | 4.78 |
| CC[C@H]1CCCCN1C(=O)C[C@H](NC(=O)CCc1ccccc1)C(=O)N[C@@H](C)c1nc2c(F)cccc2[nH]1 [CEN-20] | pIC50 | = | 5.59 |
| C[C@H](NC(=O)[C@H](CC(=O)N1CCCC[C@@H]1C)NC(=O)CCC(C)(C)C)c1nc2c(F)cccc2[nH]1 [CEN-41] | pIC50 | = | 5.32 |
| C[C@H](NC(=O)[C@H](CC(=O)N1CCCC[C@@H]1C)NC(=O)CC1CCOCC1)c1ncc(-c2ccc(F)cc2F)[nH]1 [CEN-106] | pIC50 | = | 4.89 |
| C[C@H](NC(=O)[C@H](CC(=O)N1CCC[C@@H]1c1ccccc1)NC(=O)CCCC(F)(F)F)c1nc2ccccc2s1 [CEN-67] | pIC50 | < | 4.00 |
| C[C@H](NC(=O)[C@H](CC(=O)N1CCCC[C@@H]1C)NS(=O)(=O)c1ccccc1)c1ncc(-c2ccc(F)cc2F)[nH]1 [CEN-110] | pIC50 | = | 5.09 |
| CC[C@H]1CCCCN1C(=O)C[C@H](NC(=O)CCN(C)C)C(=O)N[C@@H](C)c1nc2c(F)cccc2[nH]1 [CEN-4] | pIC50 | = | 5.19 |

----------
Recorded log10 of IC50 by entry
target: Human Constitutive (Hu C-20S) β5 Active Subunit (Homo sapiens); experiment: IC50 determination, human constitutive 20S proteasome β5c (suc-LLVY-AMC hydrolysis); type: biochemical; details: Table 3; IC50 against human constitutive β5 active subunit; read-out: Hu-C20S β5
Attribute Measured: log10 of IC50 (log10 of the value in µM)

| Molecule | Reported |
| --- | --- |
| C[C@H]1CCCCN1C(=O)C[C@H](NC(=O)C1CC2(C1)CC(F)(F)C2)C(=O)NC1(c2nc3cccc(F)c3[nH]2)CC1 (stereo in doubt) | 0.38 |
| CC(C)c1noc(N[C@@H](CC(=O)N2CCCC[C@@H]2C)C(=O)N[C@@H](C)c2ncc(-c3ccc(F)cc3F)[nH]2)n1 | 0.36 |
| C[C@H](NC(=O)[C@H](CC(=O)N1CCCC[C@@H]1C)NCC(=O)c1ccccc1)c1ncc(-c2ccc(F)cc2F)[nH]1 | 1.18 |
| C[C@H](NC(=O)[C@@H](N)CC(=O)N1CCCC[C@@H]1C)c1ncc(-c2ccc(F)cc2F)[nH]1 | 1.15 |
| CC(C)C1CC1C(=O)N[C@@H](CC(=O)N1CCCC[C@@H]1C)C(=O)N[C@@H](C)c1ncc(-c2ccc(F)cc2F)[nH]1 (stereo partly shown) | 0.68 |
| CC[C@H]1CCCCN1C(=O)C[C@H](Nc1nc2ccc(C)cc2o1)C(=O)N[C@@H](C)c1nc2c(F)cccc2[nH]1 | 0.04 |
| C[C@H](NC(=O)N(CC(=O)N1CCCC[C@@H]1C)NC(=O)CCC(C)(C)C)c1ncc(-c2ccc(F)cc2F)[nH]1 | 0.88 |

----------
molecular target: Human Constitutive (Hu C-20S) β5 Active Subunit (Homo sapiens, UniProt P28074); assay: IC50 determination, human constitutive 20S proteasome β5c (suc-LLVY-AMC hydrolysis); format: biochemical; conditions: Table 2; several values in a cell are repeat determinations; read-out: Hu c-20S IC50
pIC50: −log10 of the molar value.
Recorded pIC50 by entry

| Compound | pIC50 |
| --- | --- |
| C[C@H](NC(=O)[C@H](CC(=O)N1CCCC[C@@H]1C)NS(=O)(=O)Cc1ccccc1)c1ncc(-c2ccc(F)cc2F)[nH]1 | 5.21 |
| CC[C@H]1CCCCN1C(=O)C[C@H](NC(=O)CC1CC1)C(=O)N[C@@H](C)c1nc2c(F)cccc2[nH]1 | 4.77 |
| CC(C)c1noc(N[C@@H](CC(=O)N2CCCC[C@@H]2C)C(=O)N[C@@H](C)c2ncc(-c3ccc(F)cc3F)[nH]2)n1 | 5.64 |
| CC[C@H]1CCCCN1C(=O)C[C@H](NC(=O)N1CCOCC1)C(=O)N[C@@H](C)c1nc2c(F)cccc2[nH]1 | 5.35 |
| CC(C)COC(=O)NC(CC(=O)N1CCCCC1C)C(=O)NC(C)c1nc2c(F)cccc2[nH]1 (stereo not shown) | 5.60 |
| C[C@H](NC(=O)[C@@H](N)CC(=O)N1CCC[C@@H]1c1ccccc1)c1ncc(-c2ccccc2F)[nH]1 | 4.03 |
| CC(NC(=O)C(CC(=O)N1CCCCC1C)NC(=O)C1CC1C(C)C)c1nc(-c2ccc(F)cc2F)c[nH]1 (stereo not shown) | 5.32 |
